- measured.target: streptavidin (SA) (Streptomyces avidinii, UniProt P22629)
pKi: −log10 of the molar value.
measured.property: pKi

COC(=O)CCCCC[C@H]1NC(=S)N[C@H]1C    6.16

a = C[C@@H]1NC(=S)NC1CCCCCC(=O)OCc1ccccc1 (stereo partly drawn)
b = C[C@@H]1NC(=S)N[C@@H]1CCCCCC(=O)O
**Q:** Smaller pKi value? Options are a and b Give the chosen item's label as your response.
**A:** b
